Assignment: determine reported TGI for the given compounds.
# Tested on: NCI-H522 lung
# testDescription: NCI tumour cell line growth inhibition, 48 h

Input Cc1ccc2c(c1)c1nc3cc(C)c(C)cc3nc1n2CCN(C)C . Output TGI: 5.58 µM

Input COC(=O)C1=C(C)NC(C)=C(C(=O)OC)C1/C=C(\Cl)c1ccc(Cl)c(Cl)c1 . Output TGI: 32.4 µM

Input O=c1cc(-c2ccccc2)oc2cc(O)c(O)c(O)c12 . Output TGI: > 100 µM

Input C=[N+](CNC(=O)CNC(=O)C(Cc1ccc([N+](=O)[O-])cc1)NC(=O)OC(C)(C)C)C(=O)CNC(=O)C(Cc1ccc([N+](=O)[O-])cc1)NC(=O)OC(C)(C)C (stereo unspecified) . Output TGI: 79.8 µM

Input O=c1[nH]cnc2c1sc1nc3ccccc3n12 . Output TGI: > 100 µM

Input O=C(Nc1ccccc1)c1nn(-c2cc(S(=O)(=O)O)c([N+](=O)[O-])cc2Cl)[n+](-c2cc(S(=O)(=O)[O-])c([N+](=O)[O-])cc2Cl)n1 . Output TGI: > 100 µM

Input CCOc1ccc(NC(=O)C2=C(C)NC(C)=C(C(=O)Nc3ccc(OCC)cc3)C2c2ccc(O)c(OC)c2)cc1 . Output TGI: > 100 µM

Input CS(=O)(=O)OC1CN2CCC1CC2 (stereo unspecified) . Output TGI: > 100 µM

Input O=S1(=O)C(c2ccccc2)C(N2CCCCC2)C1C1CC2c3ccccc3C1c1ccccc12 (stereo unspecified) . Output TGI: > 100 µM

Input O=C(C[C@H](NC(=O)OCc1ccccc1)C(=O)NC1Cc2ccccc2OC1=O)OCc1ccccc1 (stereo partly specified) . Output TGI: > 100 µM

Input Cc1n[nH]c(=O)n1C1CCCC1 . Output TGI: > 100 µM

Input CCCCOc1ccc(NC(=O)n2nc(N)c3ccccc32)cc1 . Output TGI: > 89.1 µM

Input C=CCc1cc(-c2cc(CC=C)c(O)c(CNC)c2)cc(CNC)c1O . Output TGI: 28.3 µM

Input CC(=O)N1N=C(c2ccc(Nc3nc(Nc4ccc(Cl)cc4)nc(Nc4ccc(Cl)cc4)n3)cc2)CC1c1ccc([N+](=O)[O-])cc1 (stereo unspecified) . Output TGI: > 100 µM

Input Nc1nc(N)c(Cn2ccnc2)c(=O)[nH]1 . Output TGI: > 100 µM

Input O=C(CCC(=O)Nc1cccc(Cl)c1)CC(=O)c1ccc(F)cc1 . Output TGI: > 100 µM

From: PubChem BioAssay (NCI)
